Test system: MDA-MB-468 breast
Experiment: NCI tumour cell line growth inhibition, 48 h
# TGI listing for each entry below
assayEndpoint: TGI

[[record]]
compound = "COc1ccc(C2C3=C(COC3=O)N(CCO)c3cc4c(cc32)CCC4)cc1 (centres undefined)"
resultvalue = "5.33 µM"

[[record]]
compound = "CC[C@@H](C(=O)[C@@H](C)[C@@H](O)[C@H](C)[C@@H]1O[C@@H]([C@@H](CC)C(=O)O)CC[C@@H]1C)[C@H]1O[C@]2(C=C[C@@H](O)[C@]3(CC[C@@](C)([C@H]4CC[C@](O)(CC)[C@H](C)O4)O3)O2)[C@H](C)C[C@@H]1C"
resultvalue = "2.44 µM"

[[record]]
compound = "CNC(=O)c1cc(-c2ccc(F)cc2)cc(-c2ccc(S(=O)(=O)N3CCCC3)cc2)c1N"
resultvalue = "> 25 µM"

[[record]]
compound = "CS(=O)(=O)CCNCc1ccoc1-c1ccc2ncnc(Nc3ccc(OCc4ccccc4)cc3)c2c1"
resultvalue = "4.49 µM"

[[record]]
compound = "CCCCCCCCc1cc(O)ccc1O"
resultvalue = "28.6 µM"

[[record]]
compound = "c1ccc(-c2cc3n4c(-c5ccccc5)nn(-c5ccccc5)c4cnc-3n2)cc1"
resultvalue = "> 50 µM"

[[record]]
compound = "CN(C)CCOc1ccc2c(c1)C(=O)/C(=C\\c1ncc([N+](=O)[O-])n1C)C2"
resultvalue = "0.516 µM"

[[record]]
compound = "Cc1ccc(C2CC(c3ccc(NC(=S)Nc4ccccc4)cc3)=NN2c2ccc(S(N)(=O)=O)cc2)cc1 (centres undefined)"
resultvalue = "5.56 µM"

[[record]]
compound = "CCOC(=O)N(O)c1ccc(/C=C/c2ccccc2)cc1"
resultvalue = "0.0908 µM"

